B1: RNA-binding E3 ubiquitin-protein ligase MEX3C, residues 325 to 391; numbered along this chain, Q5U5Q3 (parent)
chain: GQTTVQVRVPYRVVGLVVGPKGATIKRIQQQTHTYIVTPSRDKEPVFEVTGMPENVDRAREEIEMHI

- Variants of: B1
- assay_text: abundance fitness (aPCA) (normalised: wild type 0, dead -1); higher = more abundant; growth selection in yeast, the domain comes from the species named
- protocol_conditions: Homo sapiens
Rule: abundance fitness under -0.4 gives N, otherwise Y.

QUERY: Record "P53M" ; criterion: abundance fitness no lower than -0.4. Met?
RESULT: N

QUERY: Record "M52D" ; criterion: abundance fitness no lower than -0.4. Met?
RESULT: Y

QUERY: Record "P20K" ; criterion: abundance fitness no lower than -0.4. Met?
RESULT: Y

QUERY: Record "Y35L" ; criterion: abundance fitness no lower than -0.4. Met?
RESULT: Y

QUERY: Record "K43M" ; criterion: abundance fitness no lower than -0.4. Met?
RESULT: Y

QUERY: Record "K43D" ; criterion: abundance fitness no lower than -0.4. Met?
RESULT: Y

Please find the next variant below.
QUERY: Record "I25L" ; criterion: abundance fitness no lower than -0.4. Met?
RESULT: Y

Data credit: the Human Domainome abundance scans (Beltran et al. 2025)
